Values compiled from paper PMC8003391.

- protocol.notes: Cytotoxicity, MTT reduction assay
- Assay type: cell-based
- measurement.parameters: human; HepG2 cells, 72 h, MTT; read-out: CC50 HepG2
- Protocol: Cytotoxicity of selected compounds was evaluated using the MTT reduction assay (3-[4,5-dimethyl-thiazol-2-yl]-2,5-diphenyltetrazolium chloride). […] The optical density was measured at 570 nm (CLARIOStar, Labtech BMG Inc, Durham, NC, USA) and cell viability was expressed as a percentage relative to the untreated control. CC50 values were calculated by plotting a log dose vs. viability curve in GraphPad Prism 6 (GraphPad, La Jolla, CA, USA). […]
CC50 at 72 h less than 20 µM is met; CC50 at 72 h greater than or equal to 20 µM is not met.

Say whether its CC50 at 72 h is strictly beneath 20 µM. Entry: Cn1c(=O)[nH]c2nnc(-c3ccc(Cl)cc3)nc2c1=O [LDT-592]
met

Say whether its CC50 at 72 h is strictly beneath 20 µM. Entry: CCOC(=O)c1ccc2[nH]cc(C(=O)OCC)c(=O)c2c1 [LDT-588]
not met

Say whether its CC50 at 72 h is strictly beneath 20 µM. Entry: CC(NC(=O)CCCNC(=O)CCC(=O)OC1OC2OC3(C)CCC4C(C)CCC(C1C)C24OO3)C(=O)O (stereo not shown) [LDT-598]
not met

Say whether its CC50 at 72 h is strictly beneath 20 µM. Entry: COc1ccc(C2CC(=O)NC3=C2C(=O)C2(Oc4c(Cl)c(OC)cc(OC)c4C2=O)C(C)C3)cc1O (stereo not shown) [LDT-614]
not met

Say whether its CC50 at 72 h is strictly beneath 20 µM. Entry: COc1cc(C2NCCc3cc(OC)c(OC)cc32)ccc1O (stereo not shown) [LDT-601]
not met

Say whether its CC50 at 72 h is strictly beneath 20 µM. Entry: COc1ccc(C2c3[nH]c4ccccc4c3C[C@H]3C(=O)N(C4CC4)CC(=O)N23)cc1OC (stereo partly shown) [LDT-599]
not met

Say whether its CC50 at 72 h is strictly beneath 20 µM. Entry: COC(CNC(=O)CCC(=O)OC1OC2OC3(C)CCC4C(C)CCC(C1C)C24OO3)OC (stereo not shown) [LDT-597]
met
